# tgt: human vWF A1 domain (SEQ ID NO 5) (Homo sapiens, UniProt P04275, T1381A)
# Sequence (P04275 with tags, fused parts or gaps T1381A): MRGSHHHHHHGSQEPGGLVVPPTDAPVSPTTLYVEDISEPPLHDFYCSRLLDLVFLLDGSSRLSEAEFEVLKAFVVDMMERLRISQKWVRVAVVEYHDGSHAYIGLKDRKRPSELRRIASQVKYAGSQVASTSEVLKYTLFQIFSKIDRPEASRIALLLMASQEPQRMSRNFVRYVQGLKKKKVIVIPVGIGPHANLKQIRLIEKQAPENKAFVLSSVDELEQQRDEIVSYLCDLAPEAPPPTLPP
# test protocol: dot blot KD determination, human vWF A1 domain
# assay context: read-out: Human vWF A1 domain KD; rRdY minimers; 8 point titration 0-300 nM
Oligonucleotides are written 5' to 3', each unit as a sugar letter and its base; * is a phosphorothioate linkage, no mark a phosphodiester; rarer units and linkages stand in square brackets, end groups in braces. Plain capitals give the bases only. d = 2'-deoxy (DNA); r = 2'-OH (RNA)
I'd appreciate it if you could supply Kd values for the items below.
Give bare numbers, in nM.

[[record]]
polymer_sequence = "GGAGCCACGGGGTGGGTAGACGGCGGGTATGTGGCTCC (rGrGrArGdCdCrAdCrGrGrGrGdTrGrGrGdTrArGrAdCrGrGdCrGrGrGdTrAdTrGdTrGrGdCdTdCdC) [SEQ ID NO 180]"
test_value = 11

[[record]]
polymer_sequence = "GGAGCCACACGACATTGGCGGGCGAGAGCCACGCATGGCTCC (rGrGrArGdCdCrAdCrAdCrGrAdCrAdTdTrGrGdCrGrGrGdCrGrArGrArGdCdCrAdCrGdCrAdTrGrGdCdTdCdC) [SEQ ID NO 192]"
test_value = 4


Now look at this entry.
// returns reported Kd for input GGCCACACGACATTGGCGGGCGAGAGCCACGCATGGCC (rGrGdCdCrAdCrAdCrGrAdCrAdTdTrGrGdCrGrGrGdCrGrArGrArGdCdCrAdCrGdCrAdTrGrGdCdC) [SEQ ID NO 198]
5
